- experiment: solvent given as SMILES
- test context: in CC#N
Listed here are compounds together with their documented emission maximum.
Give the quantity in nm, number only.

Oc1ccccc1-c1nc(-c2ccccc2)c2ccccn12 : 480

Query (compound): O=C(N/N=C/c1ccccc1O)c1ccccc1 ; field requested: emission maximum 373

###

- experiment: solvent given as SMILES
- test context: in Cc1ccccc1
measurement kind: emission maximum (nm)
Give the quantity in nm, number only.

Field: example entries. Status: answers known.
Cc1nnc(-c2ccc(-n3c4ccccc4c4ccccc43)cc2)o1 : 372
Nc1cccc2cccc(N)c12 : 403
c1ccc(-c2nnc(-c3ccc(-n4c5ccccc5c5ccccc54)cc3)o2)cc1 : 387
N#C/C(=C\c1ccc(C#N)cc1)c1nc(-c2ccccc2)cs1 : 472
CN(C)c1ccc(/C=C/C=C/c2ccc([N+](=O)[O-])c(O)c2)cc1 : 609
CCCCCCC1(CCCCCC)c2cc(-c3nc(-c4ccc5c(c4)C(CCCCCC)(CCCCCC)c4cc(N6c7ccccc7Sc7ccccc76)ccc4-5)nc(-c4ccc5c(c4)C(CCCCCC)(CCCCCC)c4cc(N6c7ccccc7Sc7ccccc76)ccc4-5)n3)ccc2-c2ccc(N3c4ccccc4Sc4ccccc43)cc21 : 529

Query (molecule): O=S1(=O)c2ccc(-c3ccc(-n4c5ccccc5c5ccccc54)cc3)cc2C2(c3ccccc3-c3ccccc32)c2cc(-c3ccc(-n4c5ccccc5c5ccccc54)cc3)ccc21 ; field requested: emission maximum 396.57

Query (molecule): c1ccc(-n2c3ccccc3c3c2c2ccccc2n3-c2ccccc2)cc1 ; field requested: emission maximum 376

Query (molecule): CCN1C(=O)C(C2C(=O)c3c4ccccc4cc4cc5ccccc5c2c34)C(=O)N(CC)C1=S (centres undefined) ; field requested: emission maximum 564

###

- experiment: solvent given as SMILES
- test context: in C1CCOC1
measurement kind: emission maximum (nm)
Give the quantity in nm, number only.

Fc1ccc(-c2nc3n(c2-c2ccncc2)CCS3)cc1 : 414
Cc1cc(C)c([B-]2(c3c(C)cc(C)cc3C)[O+]=P(c3ccccc3)(c3ccccc3)c3cc(-c4ccc(N(C)C)cc4)sc3-c3sc(-c4ccc(N(C)C)cc4)cc32)c(C)c1 : 552
COc1ccc(/C=C/c2cc(/C=C/c3ccc(N(c4ccccc4)c4ccccc4)cc3)nc(/C=C/c3ccc(N(C)C)cc3)n2)cc1 : 436

Query (compound): Cc1cccc(C2=CC3=C(c4c(C)cc(C)cc4C)c4cc(-c5cccc(C)c5)c(-c5cccc(C)c5)n4[B-](F)(F)[N+]3=C2c2cccc(C)c2)c1 ; field requested: emission maximum 626

###

- experiment: solvent given as SMILES
- test context: in ClCCl
measurement kind: emission maximum (nm)
Give the quantity in nm, number only.

Field: example entries. Status: answers known.
Cc1ccc(N(c2ccc(C)cc2)c2ccc3c4cccc5c(N(c6ccc(C)cc6)c6ccc(C)cc6)ccc(c6cccc2c63)c54)cc1 : 568
CCC/N=C/c1cc2ccc(N(C)C)cc2cc1OC : 434
N#Cc1ccc(-c2cn3cc(-c4ccccc4)c[n+]3[n-]2)cc1 : 506
CC1=CC(C)=[N+]2C1=Cc1c3ccccc3c(C#Cc3ccsc3)n1[B-]2(F)F : 628
Cc1cccc2[n+]1[B-](F)(F)n1c(c3cccc4cccc1c43)=N2 : 521
CCCCN(CCCC)c1ccc(C#Cc2cc(C#Cc3ccc(N(CCCC)CCCC)cc3)c(C#Cc3ccc(C(F)(F)F)cc3)cc2C#Cc2ccc(C(F)(F)F)cc2)cc1 : 541
CCN(CC)c1ccc2c(-c3ccccc3C(=O)O)c3c([o+]c2c1)/C(=C/C=C/c1ccc(N(C)C)cc1)CCC3 : 857
c1ccc(N(c2ccccc2)c2ccc(-c3nc(-c4ccc(N(c5ccccc5)c5ccccc5)cc4)c4ccccc4n3)cc2)cc1 : 534

Query (compound): COc1ccc(/C=C/c2cc(/C=C/c3ccc(N(c4ccccc4)c4ccccc4)cc3)nc(/C=C/c3ccc(N(C)C)cc3)n2)cc1 ; field requested: emission maximum 548

Query (compound): N#CC(C#N)=Cc1ccc(-c2cccc(-c3nc4ccccc4s3)c2O)s1 ; field requested: emission maximum 607

meta.source: the Deep4Chem optical property database
